Molecular target: Beta-secretase 1 (Homo sapiens)
Sequence (P56817 whole entry): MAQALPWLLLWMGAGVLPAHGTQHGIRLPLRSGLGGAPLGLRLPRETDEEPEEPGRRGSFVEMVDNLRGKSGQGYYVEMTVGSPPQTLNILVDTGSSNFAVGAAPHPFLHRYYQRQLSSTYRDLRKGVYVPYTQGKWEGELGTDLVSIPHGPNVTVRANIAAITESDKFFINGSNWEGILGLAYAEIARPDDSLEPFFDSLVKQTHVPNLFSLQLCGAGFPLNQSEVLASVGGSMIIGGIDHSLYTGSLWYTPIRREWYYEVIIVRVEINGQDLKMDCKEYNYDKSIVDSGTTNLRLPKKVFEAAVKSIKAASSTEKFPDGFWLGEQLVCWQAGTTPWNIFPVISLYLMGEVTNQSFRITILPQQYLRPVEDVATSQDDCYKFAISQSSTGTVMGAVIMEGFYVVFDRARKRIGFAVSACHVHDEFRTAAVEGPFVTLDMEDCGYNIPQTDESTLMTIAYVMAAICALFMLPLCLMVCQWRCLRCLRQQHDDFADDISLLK
Experiment: Inhibition of human recombinant BACE-1 using M-2420 as substrate preincubated for 1 hr prior substrate addition measured after 15 mins by spectrofluorimetry
pIC50: −log10 of the molar value.
Measured pIC50 of individual entries

Molecule: CC1=CC2Cc3nc4cc(Cl)ccc4c(NCCCCCCCCNc4c5c(nc6cc(Cl)ccc46)CCCC5)c3C(C1)C2.Cl (racemic)
Measured on: Beta-secretase 1 (Homo sapiens)
pIC50: 5.31
--
Molecule: CC1=CC2Cc3nc4cc(Cl)ccc4c(NCCCCCCCCCCNc4c5c(nc6ccccc46)CCCC5)c3C(C1)C2.Cl.Cl.Cl (racemic)
Measured on: Beta-secretase 1 (Homo sapiens)
pIC50: 5.14
--
Molecule: CC1=CC2Cc3nc4cc(Cl)ccc4c(NCCCCCCCCCNc4c5c(nc6cc(Cl)ccc46)CCCC5)c3C(C1)C2.Cl.Cl.Cl.Cl (racemic)
Measured on: Beta-secretase 1 (Homo sapiens)
pIC50: 5.24
--
Molecule: CC1=C[C@H]2Cc3nc4cc(Cl)ccc4c(NCCCCCCCNc4c5c(nc6cc(Cl)ccc46)CCCC5)c3[C@@H](C1)C2
Measured on: Beta-secretase 1 (Homo sapiens)
pIC50: 5.23
--
Molecule: CC1=CC2Cc3nc4cc(Cl)ccc4c(NCCCCCCCCCCNc4c5c(nc6cc(Cl)ccc46)CCCC5)c3C(C1)C2.Cl.Cl.Cl.Cl (racemic)
Measured on: Beta-secretase 1 (Homo sapiens)
pIC50: 5.18
--
Molecule: CC1=C[C@@H]2Cc3nc4cc(Cl)ccc4c(NCCCCCCCNc4c5c(nc6cc(Cl)ccc46)CCCC5)c3[C@H](C1)C2
Measured on: Beta-secretase 1 (Homo sapiens)
pIC50: 5.24

====

Biological target: UniProtKB P23795
Sequence (P23795 whole entry): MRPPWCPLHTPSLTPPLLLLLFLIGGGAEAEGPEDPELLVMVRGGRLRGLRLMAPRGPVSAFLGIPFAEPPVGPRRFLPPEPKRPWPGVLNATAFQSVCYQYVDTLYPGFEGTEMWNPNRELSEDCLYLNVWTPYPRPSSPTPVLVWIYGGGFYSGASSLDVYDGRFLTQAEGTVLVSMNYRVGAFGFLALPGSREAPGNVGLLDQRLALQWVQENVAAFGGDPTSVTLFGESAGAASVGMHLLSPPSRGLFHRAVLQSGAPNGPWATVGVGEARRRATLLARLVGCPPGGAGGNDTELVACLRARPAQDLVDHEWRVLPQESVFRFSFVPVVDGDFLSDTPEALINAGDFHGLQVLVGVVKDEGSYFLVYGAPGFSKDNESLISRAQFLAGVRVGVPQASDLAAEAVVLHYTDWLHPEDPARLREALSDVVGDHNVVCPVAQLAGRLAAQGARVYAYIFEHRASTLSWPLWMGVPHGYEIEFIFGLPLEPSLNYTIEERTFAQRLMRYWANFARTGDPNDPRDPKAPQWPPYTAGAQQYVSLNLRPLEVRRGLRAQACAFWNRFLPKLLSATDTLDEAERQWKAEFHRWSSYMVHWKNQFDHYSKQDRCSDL
Assay: Inhibition of bovine AChE-induced coumarin-tagged PrP106-126 aggregation after 48 hrs by fluorescence microscopy
Outcome measure: IC50 (nM)

Molecule: CC1=CC2Cc3nc4cc(Cl)ccc4c(NCCCCCCCCNc4c5c(nc6ccccc46)CCCC5)c3C(C1)C2.Cl (racemic)
Recorded measurement: 68.7

Molecule: CC1=CC2Cc3nc4cc(Cl)ccc4c(NCCCCCCCCNc4c5c(nc6cc(Cl)ccc46)CCCC5)c3C(C1)C2.Cl (racemic)
Recorded measurement: 263

====

Molecular target: Acetylcholinesterase (Homo sapiens, UniProt P22303)
Sequence (P22303 whole entry): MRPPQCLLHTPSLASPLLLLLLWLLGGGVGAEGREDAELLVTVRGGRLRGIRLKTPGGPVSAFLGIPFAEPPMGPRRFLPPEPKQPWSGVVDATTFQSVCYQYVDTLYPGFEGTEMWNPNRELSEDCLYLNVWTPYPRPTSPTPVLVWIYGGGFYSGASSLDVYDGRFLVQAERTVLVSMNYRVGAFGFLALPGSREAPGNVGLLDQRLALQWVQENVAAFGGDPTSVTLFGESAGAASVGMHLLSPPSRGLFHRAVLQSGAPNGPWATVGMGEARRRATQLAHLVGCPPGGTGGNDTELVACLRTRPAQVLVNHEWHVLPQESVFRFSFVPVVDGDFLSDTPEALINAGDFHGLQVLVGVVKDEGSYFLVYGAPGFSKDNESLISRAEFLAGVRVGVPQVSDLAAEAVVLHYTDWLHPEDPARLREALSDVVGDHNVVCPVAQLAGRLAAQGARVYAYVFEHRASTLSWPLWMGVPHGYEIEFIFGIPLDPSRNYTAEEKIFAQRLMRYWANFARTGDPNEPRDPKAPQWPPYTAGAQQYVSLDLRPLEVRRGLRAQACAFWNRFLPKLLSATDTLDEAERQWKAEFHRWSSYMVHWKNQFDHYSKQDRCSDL
Measured IC50 of individual entries
Outcome measure: IC50 (nM)

Compound: CC1=CC2Cc3nc4cc(Cl)ccc4c(NCCCCCCNc4c5c(nc6cc(Cl)ccc46)CCCC5)c3C(C1)C2.Cl (racemic)
Measured on: Acetylcholinesterase (Homo sapiens, UniProt P22303)
Recorded measurement: 0.74
//
Compound: CC1=CC2Cc3nc4cc(Cl)ccc4c(NCCCN(C)CCCNc4c5c(nc6ccccc46)CCCC5)c3C(C1)C2.Cl (racemic)
Measured on: Acetylcholinesterase (Homo sapiens, UniProt P22303)
Recorded measurement: 0.42
//
Compound: CC1=CC2Cc3nc4cc(Cl)ccc4c(NCCCCCCCNc4c5c(nc6cc(Cl)ccc46)CCCC5)c3C(C1)C2.Cl.Cl.Cl.Cl (racemic)
Measured on: Acetylcholinesterase (Homo sapiens, UniProt P22303)
Recorded measurement: 4.02
//
Compound: CC1=CC2Cc3nc4cc(Cl)ccc4c(NCCCCCCCCCCNc4c5c(nc6ccccc46)CCCC5)c3C(C1)C2.Cl.Cl.Cl (racemic)
Measured on: Acetylcholinesterase (Homo sapiens, UniProt P22303)
Recorded measurement: 4.19
//
Compound: CC1=CC2Cc3nc4cc(Cl)ccc4c(NCCCCCCCNc4c5c(nc6ccccc46)CCCC5)c3C(C1)C2.Cl.Cl.Cl (racemic)
Measured on: Acetylcholinesterase (Homo sapiens, UniProt P22303)
Recorded measurement: 1.89
